Test system: TYK2(JH1domain-catalytic)
Conditions: concentration: 1 μM, replicates: in singlicate; n = 1;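 also: KINOMEscan kinase panel screen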
Label scheme for %Inh: lower than 3% is 0 (no), 3% and above is 1 (yes).

compound	system_tested	cat
O=C(Nc1n[nH]c2cc(-c3ccccc3F)ccc12)C1CC1	TYK2(JH1domain-catalytic)	0 (no)

Say whether COc1cccc(C2=C(Nc3cccc(C(=O)O)c3)C(=O)NC2=O)c1 shows %Inh of 3% or more.
1 (yes)

Record CN1C(=O)C(Nc2ccccc2)=C(c2ccccc2)C1=O ; criterion: %Inh no lower than 3%. Met?
0 (no)

Form field: %Inh at least 3%? Entry: Nc1ncnc2c1ncn2-c1cccc2ccccc12
1 (yes)

----------
Test system: TYK2(JH2domain-pseudokinase)
Conditions: concentration: 1 μM, replicates: in singlicate; n = 1
Think of 10% as a floor: if %Inh stands on it or above, it is Met; beneath it, Not met.

A selection of reference data follows.
compound	cat
COc1ccc(CNC(=O)NC2CCN(c3ccnc(Nc4ccc(F)cc4)n3)C2)cc1 (stereo not drawn) [GSK1379706]	Met
O=c1cc(N2CCOCC2)nc2n(Cc3ccc(F)c(Cl)c3)ccn12 [GSK2297099]	Met
CCc1ccc(-c2ccc3c(c2)-c2nn(C)cc2S(=O)(=O)N3C)cc1	Not met

Say whether Cc1cccc(-c2nc(Nc3ccc4c(cnn4C)c3)c3ccccc3n2)n1 [GW876731] shows %Inh of 10% or more.
Met

Given the entry COc1ccc(-n2cnc3c(N)ncnc32)cc1 [SKF-97236] , answer whether its %Inh meets or surpasses 10%.
Met

Does CCC(=O)c1c(-c2ccccc2)c2cc(Cl)ccc2c(=O)n1Cc1cc(S(C)(=O)=O)n(CC(N)=O)n1 have a reported %Inh of at least 10%?
Not met

Reported %Inh at or above 10%? COc1cc2ncn(-c3cc(OCc4ccncc4)c(C(N)=O)s3)c2cc1OC [GSK336313]
Met

Please tell me: is the compound Cc1nnc(-c2ccc3ncn(-c4ccc(S(C)=O)cc4)c3c2)o1 (stereo not drawn) at or over 10% in terms of %Inh?
Not met

Would you say Cc1ccc(Oc2ccc(Nc3ncnc4cc[nH]c34)cc2C)cn1 shows %Inh at minimum 10%?
Met

----------
System: BMPR2
Conditions: concentration: 1 μM, replicates: in singlicate; n = 1
observation_type: %Inh

Reference set (8 entries):
molecule	system_tested	meas_value
COc1cccc(C2=C(Nc3cccc(C(=O)O)c3)C(=O)NC2=O)c1 [SB-390770]	BMPR2	10%
Nc1ncnc2c1ncn2-c1cccc(F)c1 [SKF-97560]	BMPR2	26%
CCCC(=O)Nc1n[nH]c2ncc(-c3cccc4ccccc34)cc12 [SB-642057]	BMPR2	0%
OCCCNc1nccc(-c2c(-c3cccc(C(F)(F)F)c3)nn3cc(C(F)(F)F)ccc23)n1 [GW630813]	BMPR2	0%
COc1ccc(-c2cc3c(C)nc(N)nc3n([C@H]3CC[C@H](OCCO)CC3)c2=O)cn1	BMPR2	0%
CCCNC(=O)Nc1ccc(Oc2ncnc3ccn(C)c23)cc1	BMPR2	16%
COc1cc(Nc2nccc(N3CCC(NC(=O)C(C)c4ccc(Cl)cc4)C3)n2)cc(OC)c1OC (stereo not shown) [GSK1379757]	BMPR2	4%
CCC(=O)c1c(-c2ccccc2)c2cc(Cl)ccc2c(=O)n1Cc1cc(S(C)(=O)=O)n(CC(N)=O)n1	BMPR2	0%

Indicate its recorded %Inh; the molecule in question is Cc1c(Cn2c(C)nn3c(=O)cc(N4CCO[C@H](C)C4)nc23)cccc1C(F)(F)F [GSK2373690]
0%

Supply recorded %Inh for CCC(=O)c1c(-c2ccccc2)c2cc(Cl)ccc2c(=O)n1Cc1cc(C(=O)NC2CC2)n(C)n1 here.
9%

In one line, give reported %Inh of the entry Nc1ncnc2c1ncn2-c1ccc(Cl)cc1 [AH2635] .
2%

# return recorded %Inh for entry COc1ccc(-n2cnc3c(N)ncnc32)cc1 [SKF-97236]
0%

Read off the recorded %Inh for COc1cc(Nc2nccc(N3CCC(NC(=O)C4COc5ccccc5O4)C3)n2)cc(OC)c1OC (stereo not shown) [GSK1379761]
26%

Answer with the recorded %Inh of O=C(NCCNc1ccnc(Nc2ccc(F)cc2)n1)Nc1ccc2c(c1)OCO2 [GSK1379882] only.
0%

Please look at this molecule and report its %Inh: Nc1ncnc2c1ncn2-c1cccc2ccccc12 [SKF-97184]
35%

Using the record for CN(C)c1cc(-c2ccc3c(N)n[nH]c3c2)nc(N)n1 [GSK2219329] , state its measured %Inh.
0%

Note %Inh for the molecule shown: COc1cc2nccc(Nc3cccc(Oc4ccccc4)c3)c2cc1OC.Cl [GW284543]
0%

Given COC(=O)c1c(-c2ccccc2)c2cc(C)ccc2c(=O)n1Cc1ccccc1 , respond with its %Inh.
0%

Item Nc1n[nH]c2nnc(-c3ccccc3)c(-c3ccccc3)c12 [GW554060] : provide %Inh
0%

----------
Test system: RSK2(Kin.Dom.2-C-terminal)
Construct: gene RPS6KA3
Conditions: concentration: 1 μM, replicates: in singlicate; n = 1
The entries below are paired with their reported %Inh.
Please respond with the number in % and leave the unit unwritten.

Look over these answered cases.
molecule	observation_type	meas_value
CCC(=O)c1c(-c2ccccc2)c2cc(Cl)ccc2c(=O)n1Cc1cc(S(C)(=O)=O)n(CC(N)=O)n1	%Inh	0
CC(C)(C)c1ccc(C(=O)Nc2cn3cc(-c4ccccc4)ccc3n2)cc1	%Inh	0
COc1cc2ncn(-c3cc(OCc4ccc(S(C)(=O)=O)cc4)c(C(N)=O)s3)c2cc1OC [GW869979]	%Inh	0
Cc1nnc(-c2ccc3ncn(-c4ccc(S(C)=O)cc4)c3c2)o1 (centres unmarked)	%Inh	0

Complete the entry with %Inh for Nc1ncnc2c1ncn2-c1cccc2ccccc12 [SKF-97184]
0

Let me know recorded %Inh for COc1ccc(-c2cc3c(C)nc(N)nc3n([C@H]3CC[C@H](OCCO)CC3)c2=O)cn1 , thanks.
0

Tell us which %Inh value is on record for Cc1nc(N(C)[C@H]2CN(C(=O)CC#N)CC[C@H]2C)c2cc[nH]c2n1
0

----------
# maps each entry to its %Inh
System: NEK4
Conditions: concentration: 1 μM, replicates: in singlicate; n = 1
Write the number in % without appending the unit.

molecule	observation_type	meas_value
Cc1c(Cn2c(C)nn3c(=O)cc(N4CCO[C@H](C)C4)nc23)cccc1C(F)(F)F	%Inh	31
Cc1ccccc1COc1cc(-n2cnc3cc(Cl)ccc32)sc1C(N)=O	%Inh	0
COc1ccc(Nc2nccc(N3CCC(NS(=O)(=O)c4ccc(NC(C)=O)cc4)C3)n2)cc1 (stereo not drawn)	%Inh	3

Output measured %Inh for this item: Cc1cccc(-c2cc(-c3c[nH]nc3-c3ccccn3)ccn2)c1
0

Assign %Inh to the following record: Nc1nc(N)c2nc(-c3ccccc3)[nH]c2n1
8

# return recorded %Inh for input Cc1ccc(Oc2ccc(Nc3ncnc4cc[nH]c34)cc2C)cn1
3

Report %Inh for Fc1cccc(CSc2nnc(-c3ccc4c(c3)CCO4)o2)c1
20

Please give the documented %Inh of CCCC(=O)Nc1n[nH]c2ncc(-c3cccc4ccccc34)cc12
0

Give a short answer stating reported %Inh for COc1cc(Nc2nccc(N3CCC(NC(=O)C4COc5ccccc5O4)C3)n2)cc(OC)c1OC (stereo not drawn) .
7

----------
Test system: CDKL2
Settings: concentration: 1 μM, replicates: in singlicate; n = 1
observation_type: %Inh (%)
State just the number; it will be interpreted in %.

The following compounds have reported results that may help.
compound	system_tested	meas_value
COc1cc(OC)cc(-c2cc3cnc(N)nc3nc2NC(=O)NC(C)(C)C)c1	CDKL2	0
Nc1nc(N)c2nc(-c3ccccc3)[nH]c2n1	CDKL2	2

Find %Inh for COC(=O)c1c(-c2ccccc2)c2cc(C)ccc2c(=O)n1Cc1ccccc1 on CDKL2 and write it down.
0

Write down measured %Inh (CDKL2) for this compound. Cc1c(Cn2c(C)nn3c(=O)cc(N4CCO[C@H](C)C4)nc23)cccc1C(F)(F)F
24

Specify %Inh for O=C1NC(=O)C(c2ccccc2)=C1Nc1cccc(O)c1 , system CDKL2.
11

Report %Inh under test system CDKL2 for Nc1nc(-c2ccccc2F)c(-c2ccnc3ccccc23)s1 .
26

Please report %Inh with CDKL2 for item O=C(NCCNc1ccnc(Nc2ccc(F)cc2)n1)Nc1ccc2c(c1)OCO2 .
15

----------
Test system: FRK
Conditions: concentration: 1 μM, replicates: in singlicate; n = 1
# %Inh listing for each entry below
Please respond with the number in % and leave the unit unwritten.

Study these solved cases before continuing.
compound	system_tested	unit_descriptor	%Inh
Cc1nn2c(=O)cc(N3CCOCC3)nc2n1Cc1cccc(Cl)c1Cl	FRK	%	0
Nc1n[nH]c2nnc(-c3ccccc3)c(-c3ccccc3)c12	FRK	%	5
Nc1ncnc2c1ncn2-c1cccc(F)c1	FRK	%	0
COC(=O)c1c(-c2ccccc2)c2cc(Br)ccc2c(=O)n1Cc1ccc(NC(=O)CCC(=O)O)cc1	FRK	%	8
COc1ccc(-c2cc3c(C)nc(N)nc3n([C@H]3CC[C@H](O)CC3)c2=O)cn1	FRK	%	0
CCCC(=O)Nc1n[nH]c2ncc(-c3cccc4ccccc34)cc12	FRK	%	0
O=C(Nc1n[nH]c2nc(-c3ccccc3)c(Cl)cc12)C1CC1	FRK	%	0
COc1cccc(C2=C(Nc3cccc(C(=O)O)c3)C(=O)NC2=O)c1	FRK	%	2

Specify %Inh for Nc1ncnc2c1ncn2-c1cccc2ccccc12 and stop.
0

Give %Inh for the following compound: Cn1c(=O)c(F)c(Nc2ccc(I)cc2F)c2c(=O)n(OC[C@H](O)CO)cnc21
0

Look up and report measured %Inh for this entry: CCCNC(=O)Nc1ccc(Oc2ncnc3ccn(C)c23)cc1
0

# return recorded %Inh for entry COc1cccc(C2=C(N(C)c3ccccc3)C(=O)NC2=O)c1
5

Using the record for OCCCNc1nccc(-c2c(-c3cccc(C(F)(F)F)c3)nn3cc(C(F)(F)F)ccc23)n1 , state its measured %Inh.
0

For CCC(=O)c1c(-c2ccccc2)c2cc(Cl)ccc2c(=O)n1Cc1cc(C(=O)NC2CC2)n(C)n1 , write its %Inh.
8

Hello, please tell me recorded %Inh for this one: COC(=O)c1c(-c2ccccc2)c2cc(Br)ccc2c(=O)n1Cc1ccc(S(C)(=O)=O)cc1
1

Give the reported %Inh for this compound. COc1ccc(Nc2nccc(N3CCC(NS(=O)(=O)c4ccc(NC(C)=O)cc4)C3)n2)cc1 (stereo not shown)
16
